B1: MYL5 (parent)
chain: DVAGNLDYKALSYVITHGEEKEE

- Variants of: B1
- method.description: protein stability index of a GFP-peptide fusion (GPS, HEK-293T) (PSI 1-6); higher = more stable;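 also: lentivirally expressed fusions sorted by FACS into six bins by GFP to DsRed ratio, PSI derived from sequencing read proportions per bin multiplied by bin number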
- test.parameters: c terminus: native
Short version: protein stability index at least 2 is rule met, less is rule not met.

I15H rule met

Ask: Test whether the variant "I15D" records protein stability index of 2 or higher.
Reply: rule met

Ask: Evaluate "Y13C" : protein stability index at minimum 2?
Reply: rule met

Ask: Record "G18N" ; criterion: protein stability index no lower than 2. Met?
Reply: rule met

Ask: In plain terms: is recorded protein stability index at least 2 for "A10G" ?
Reply: rule met

Ask: Hi, just wondering whether "A10D" shows protein stability index of 2 or higher.
Reply: rule met

Ask: Does protein stability index meet or surpass 2 for "L11Y" ?
Reply: rule met
